target: PI3Kα (p110α/p85α) (Homo sapiens (Human), UniProt P42336); experiment: PI3Kα enzymatic test by measuring the consumption of ATP; assay type: biochemical
Sequence (P42336 whole entry): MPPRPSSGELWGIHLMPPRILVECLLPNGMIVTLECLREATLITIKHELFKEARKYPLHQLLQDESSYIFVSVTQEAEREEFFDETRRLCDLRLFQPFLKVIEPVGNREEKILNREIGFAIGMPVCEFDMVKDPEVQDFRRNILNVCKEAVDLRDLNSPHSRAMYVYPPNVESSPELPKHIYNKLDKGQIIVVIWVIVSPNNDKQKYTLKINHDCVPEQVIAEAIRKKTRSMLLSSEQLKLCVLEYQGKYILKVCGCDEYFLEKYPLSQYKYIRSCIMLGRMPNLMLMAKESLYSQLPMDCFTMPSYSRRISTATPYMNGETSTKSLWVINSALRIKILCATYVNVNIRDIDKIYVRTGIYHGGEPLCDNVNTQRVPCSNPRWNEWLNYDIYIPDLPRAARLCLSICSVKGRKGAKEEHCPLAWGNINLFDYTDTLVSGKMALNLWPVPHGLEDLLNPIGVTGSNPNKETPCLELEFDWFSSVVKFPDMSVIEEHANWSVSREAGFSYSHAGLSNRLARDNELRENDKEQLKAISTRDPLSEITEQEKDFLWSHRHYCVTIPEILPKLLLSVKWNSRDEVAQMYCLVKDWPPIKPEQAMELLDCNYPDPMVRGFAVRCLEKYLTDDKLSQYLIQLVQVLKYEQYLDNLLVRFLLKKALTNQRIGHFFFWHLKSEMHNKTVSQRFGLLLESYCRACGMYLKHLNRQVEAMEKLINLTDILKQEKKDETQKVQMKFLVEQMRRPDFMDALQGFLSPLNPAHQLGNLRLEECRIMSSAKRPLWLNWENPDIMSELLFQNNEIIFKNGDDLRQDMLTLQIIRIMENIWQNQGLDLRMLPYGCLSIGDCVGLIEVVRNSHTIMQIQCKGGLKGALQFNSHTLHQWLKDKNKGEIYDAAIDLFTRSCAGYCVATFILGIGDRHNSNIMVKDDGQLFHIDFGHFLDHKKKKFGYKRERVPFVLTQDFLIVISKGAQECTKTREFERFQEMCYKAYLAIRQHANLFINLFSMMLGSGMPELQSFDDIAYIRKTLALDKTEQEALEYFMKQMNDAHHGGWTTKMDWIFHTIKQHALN
Sequence (P27986 whole entry partner): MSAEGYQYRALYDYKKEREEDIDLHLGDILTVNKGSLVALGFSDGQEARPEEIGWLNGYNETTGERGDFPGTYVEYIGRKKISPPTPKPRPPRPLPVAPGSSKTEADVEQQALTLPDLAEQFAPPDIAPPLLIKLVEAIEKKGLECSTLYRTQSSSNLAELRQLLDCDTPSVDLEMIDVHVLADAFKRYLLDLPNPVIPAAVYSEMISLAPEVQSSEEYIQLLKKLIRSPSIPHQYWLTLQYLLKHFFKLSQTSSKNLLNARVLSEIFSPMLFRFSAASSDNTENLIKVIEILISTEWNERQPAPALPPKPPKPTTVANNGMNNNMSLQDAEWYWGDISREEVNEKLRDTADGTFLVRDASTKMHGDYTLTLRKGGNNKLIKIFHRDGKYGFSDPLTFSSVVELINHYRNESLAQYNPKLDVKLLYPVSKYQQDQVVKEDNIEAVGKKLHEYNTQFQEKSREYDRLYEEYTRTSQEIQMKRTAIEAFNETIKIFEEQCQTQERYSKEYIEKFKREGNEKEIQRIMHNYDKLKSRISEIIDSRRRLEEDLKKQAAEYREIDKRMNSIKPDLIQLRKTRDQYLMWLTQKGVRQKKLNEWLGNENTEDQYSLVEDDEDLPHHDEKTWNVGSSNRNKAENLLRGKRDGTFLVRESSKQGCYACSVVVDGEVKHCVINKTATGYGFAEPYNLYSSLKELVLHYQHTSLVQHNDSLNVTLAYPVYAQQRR
Readout: PI3Ka IC50 (µM)

>>> measurement("CCNC(=O)Nc1ccc(-c2nc(N3C[C@@H](C)O[C@@H](C)C3)nc3c2C(=O)N(CC)CC(C)(C)CO3)cc1")
2.046
>>> measurement("CCN1CC(C)(C)Oc2nc(N3CC4CCC(C3)O4)nc(-c3ccc(NC(=O)Nc4cc(C)nc(C)c4)c(F)c3)c2C1=O")
9.47
>>> measurement("CCN1CC(C)(C)Oc2nc(N3CCOC[C@@H]3C)nc(-c3ccc(NC(=O)Nc4ccc(F)cc4F)cc3)c2C1=O")
0.57

---

This listing pairs compounds with measured PI3Ka IC50.
target: PI3Kα (p110α/p85α) (Homo sapiens (Human), UniProt P42336); assay: PI3Kα enzymatic test by measuring the consumption of ATP; format: biochemical
Readout: PI3Ka IC50 (nM)

>>> measurement("CCN1CC(C)(C)Oc2nc(N3CCOC[C@@H]3C)nc(-c3ccc(NC(=O)Nc4ccc(N5C[C@@H]6C[C@H]5CO6)nc4)c(F)c3)c2C1=O")
1360
>>> measurement("CCN1CC(C)(C)Oc2nc(N3CCOC[C@@H]3C)nc(-c3ccc(NC(=O)Nc4ccccc4F)cc3)c2C1=O")
213
>>> measurement("CCN1CC(C)(C)Oc2nc(N3CCOC[C@@H]3C)nc(-c3ccc(NC(=O)Nc4ccc(N5CCOCC5)cc4)c(F)c3)c2C1=O")
484
>>> measurement("Cc1ccc(NC(=O)Nc2ccc(-c3nc(N4CC5CCC(C4)O5)nc4c3C(=O)N(C)CC(C)(C)O4)cc2F)cn1")
2950
>>> measurement("CCN1CC(C)(C)Oc2nc(N3CC4CCC(C3)O4)nc(-c3ccc(NC(=O)Nc4ccc(C(=O)NCC(C)(C)O)cc4)cc3)c2C1=O")
927

---

Catalogue of PI3Ka IC50 readings, one per entry.
target: PI3Kα (p110α/p85α) (Homo sapiens (Human), UniProt P42336); assay: PI3Kα enzymatic test by measuring the consumption of ATP; format: biochemical
Readout: PI3Ka IC50

>>> measurement("CCN1CC(C)(C)Oc2nc(N3CCOC[C@@H]3C)nc(-c3ccc(NC(=O)Nc4ccc(OC)cn4)cc3)c2C1=O [Example 173]")
"1.602 µM"
>>> measurement("CCN1CC(C)(C)Oc2nc(N3CCOC[C@@H]3C)nc(-c3ccc(NC(=O)Nc4cc(OC)ccn4)cc3F)c2C1=O [Example 242]")
">10 µM"
>>> measurement("CCN1CC(C)(C)Oc2nc(N3CC4CCC(C3)O4)nc(-c3ccc(NC(=O)Nc4ccnc(OC)n4)c(F)c3)c2C1=O [Example 144]")
">10 µM"
>>> measurement("COc1ccc(NC(=O)Nc2ccc(-c3nc(N4C5CCC4COC5)nc4c3C(=O)N(C)CC(C)(C)O4)cc2)nc1 [Example 49]")
">10 µM"
>>> measurement("CCN1CC(C)(C)Oc2nc(N3CC4CCC(C3)O4)nc(-c3ccc(NC(=O)Nc4ccc(OC)nc4)c(F)c3)c2C1=O [Example 124]")
">10 µM"
>>> measurement("CCN1CC(C)(C)Oc2nc(N3CCOC[C@@H]3C)nc(-c3ccc(NC(=O)Nc4ccccn4)cc3)c2C1=O [Example 221]")
"0.372 µM"
>>> measurement("COc1ccc(NC(=O)Nc2ccc(-c3nc(N4CCOC[C@@H]4C)nc4c3C(=O)N(C3CCOCC3)CC(C)(C)O4)cc2F)cn1 [Example 189]")
"1.89 µM"

---

tested on: U87MG tumour cells; assay: Test of in vitro proliferation of U87MG tumour cells; type: cell-based; conditions: Homo sapiens, U-87 MG, 72 h, U87MG cells, 72 hours; read-out: U87 Cell Proliferation IC50
Catalogue of IC50 values
Readout: IC50 (nM)

>>> measurement("C[C@@H](CO)OC(=O)Nc1ccc(-c2nc(N3CC4CCC(C3)O4)nc3c2C(=O)N(C)CC(C)(C)O3)cc1 [Example 238]")
1700
>>> measurement("CCN1CC(C)(C)Oc2nc(N3CC4CCC(C3)O4)nc(-c3ccc(NC(=O)OC[C@H](C)O)cc3)c2C1=O [Example 88]")
1900
>>> measurement("CCN1CC(C)(C)Oc2nc(N3C4CCC3COC4)nc(-c3ccc(NC(=O)Nc4ccc(N5C[C@@H]6C[C@H]5CO6)nc4)c(F)c3)c2C1=O [Example 253]")
167
>>> measurement("CCN1CC(C)(C)Oc2nc(N3CCOC[C@@H]3C)nc(-c3ccc(NC(=O)Nc4ccc(N5CCOCC5)cc4)c(F)c3)c2C1=O [Example 227]")
29
>>> measurement("CCN1CC(C)(C)Oc2nc(N3CC4CCC(C3)O4)nc(-c3ccc(NC(=O)Nc4ccccn4)cc3F)c2C1=O [Example 84]")
760
>>> measurement("CCN1CC(C)(C)Oc2nc(N3C4CCC3COC4)nc(-c3ccc(NC(=O)Nc4ccnc(C)c4)c(F)c3)c2C1=O [Example 55]")
54
>>> measurement("CCN1CC(C)(C)Oc2nc(N3CCOC[C@@H]3C)nc(-c3ccc(NC(=O)Nc4cc(OC)ccn4)c(F)c3)c2C1=O [Example 181]")
1320
>>> measurement("CCN1CC(C)(C)Oc2nc(N3CC4CCC(C3)O4)nc(-c3ccc(NC(=O)Nc4cncc(OC)n4)cc3)c2C1=O [Example 28]")
508
>>> measurement("CCN1CC(C)(C)Oc2nc(N3CC4CCC(C3)O4)nc(-c3ccc(NC(=O)Nc4ccc(C(=O)N5CCC(N(C)C)CC5)cc4)cc3)c2C1=O [Example 177]")
57
>>> measurement("COCCN1CC(C)(C)Oc2nc(N3CC4CCC(C3)O4)nc(-c3ccc(NC(=O)Nc4ccc(OC)nc4)cc3)c2C1=O [Example 197]")
523
>>> measurement("COCCN1CC(C)(C)Oc2nc(N3CC4CCC(C3)O4)nc(-c3ccc(NC(=O)Nc4ccc(OC)nc4)c(F)c3)c2C1=O [Example 178]")
252
>>> measurement("CCN1CC(C)(C)Oc2nc(N3CC4CCC(C3)O4)nc(-c3ccc(NC(=O)Nc4cnc(N5CCOCC5)cn4)c(F)c3)c2C1=O [Example 233]")
908
>>> measurement("CCN1CC(C)(C)Oc2nc(N3CCOC[C@@H]3C)nc(-c3ccc(NC(=O)Nc4ccncc4)c(F)c3)c2C1=O [Example 231]")
29
>>> measurement("CCN1CC(C)(C)Oc2nc(N3CC4CCC(C3)O4)nc(-c3ccc(Nc4nc5ccccc5[nH]4)cc3)c2C1=O [Example 118]")
233
>>> measurement("CNC(=O)Nc1ccc(-c2nc(N3CC4CCC(C3)O4)nc3c2C(=O)N(C)CC(C)(C)O3)cc1 [Example 38]")
218
>>> measurement("CCN1CC(C)(C)Oc2nc(N3CCOC[C@@H]3C)nc(-c3ccc(NC(=O)Nc4ccn(C)n4)c(F)c3)c2C1=O [Example 166]")
1270
>>> measurement("CCN1CC(C)(C)Oc2nc(N3CC4CCC(C3)O4)nc(-c3ccc(NC(=O)Nc4ccnc5[nH]ccc45)c(F)c3)c2C1=O [Example 86]")
490
>>> measurement("CCNC(=O)Nc1ccc(-c2nc(N3CC4CCC(C3)O4)nc3c2C(=O)N(CCOC)CC(C)(C)O3)cc1 [Example 217]")
1760
>>> measurement("CCN1CC(C)(C)Oc2nc(N3CCOC[C@@H]3C)nc(-c3ccc(NC(=O)Nc4cnccn4)c(F)c3)c2C1=O [Example 160]")
744
>>> measurement("CCN1CC(C)(C)Oc2nc(N3CCOC[C@@H]3C)nc(-c3ccc(NC(=O)Nc4cccc(OC(F)F)c4)c(F)c3)c2C1=O [Example 212]")
71
>>> measurement("CCN1CC(C)(C)Oc2nc(N3CC4CCC(C3)O4)nc(-c3ccc(Nc4nnc(C)s4)cc3)c2C1=O [Example 121]")
802
>>> measurement("CCN1CC(C)(C)Oc2nc(N3CCOC[C@@H]3C)nc(-c3ccc(NC(=O)NCC(F)(F)F)c(F)c3)c2C1=O [Example 149]")
854
>>> measurement("CCC(=O)Nc1ccc(-c2nc(N3CC4CCC(C3)O4)nc3c2C(=O)N(CC)CC(C)(C)O3)cc1 [Example 108]")
4450
>>> measurement("COCCN1CC(C)(C)Oc2nc(N3CC4CCC(C3)O4)nc(-c3ccc(NC(=O)Nc4ccc(F)cc4F)cc3)c2C1=O [Example 162]")
486
>>> measurement("CCN1CC(C)(C)Oc2nc(N3CCOC[C@@H]3C)nc(-c3ccc(NC(=O)OCCO)cc3)c2C1=O [Example 186]")
266
>>> measurement("CCN1CC(C)(C)Oc2nc(N3CCOC[C@@H]3C)nc(-c3ccc(NC(=O)Nc4ccc(C)cn4)c(F)c3)c2C1=O [Example 164]")
872

Values from patent US9120812B2
